- ASSAY_PROCEDURE: AUC (0 to t) in Sprague-Dawley rat at 100 mg/kg, po measured up to 24 hrs by LC-MS/MS analysis
- Format: ADME, organism-based
- Design: dose 100 mg/kg, time < 24 hrs, route po
- RUN_CONDITIONS: in vivo
Property: AUC(0-t) at 24 h; scope: individual compounds
Give the value, in units of ng·h/mL, as a plain number.

RECORD_SMILES	AUC(0-t) at 24 h [ng·h/mL]
O=C(NCc1ccc(NC(=O)c2cc(F)ccc2N2CCCC2)cc1)OCc1cccnc1	7310

Now, please, on to the next compound.
Query string: Given O=C(NCc1ccc(NC(=O)c2ccccc2N2CCCC2)cc1)OCc1cccnc1 , respond with its AUC(0-t) at 24 h.
Result string: 4720

---

- ASSAY_PROCEDURE: in vitro
- RUN_CONDITIONS: human, GES1 cells
- Description: Cytotoxicity against human GES1 cells assessed as inhibition of cell growth incubated for 72 hrs by MTT assay
METRIC: IC50 at 72 h

Previously resolved entries follow.
RECORD_SMILES	RESULT
Cc1cccc(C(=O)Nc2ccc(CNC(=O)OCc3cccnc3)cc2)c1N1CCCC1	> 100 µM
O=C(NCc1ccc(NC(=O)c2cc(Cl)ccc2N2CCCC2)cc1)OCc1cccnc1	> 100 µM
O=C(NCc1ccc(NC(=O)c2cc(-c3ccccc3)ccc2N2CCCC2)cc1)OCc1cccnc1	> 100 µM
COc1ccc(N2CCCC2)c(C(=O)Nc2ccc(CNC(=O)OCc3cccnc3)cc2)c1	> 100 µM
O=C(NCc1ccc(NC(=O)c2ccc(F)cc2N2CCCC2)cc1)OCc1cccnc1	> 100 µM

Query string: Given O=C(NCc1ccc(NC(=O)c2cc(Br)ccc2N2CCCC2)cc1)OCc1cccnc1 , respond with its IC50 at 72 h.
Result string: > 100 µM

Query string: Given O=C(NCc1ccc(NC(=O)c2cc(F)ccc2N2CCCC2)cc1)OCc1cccnc1 , respond with its IC50 at 72 h.
Result string: 90.2 µM

Query string: Given O=C(NCc1ccc(NC(=O)c2cccc(F)c2N2CCCC2)cc1)OCc1cccnc1 , respond with its IC50 at 72 h.
Result string: > 100 µM

Query string: Given Cc1ccc(C(=O)Nc2ccc(CNC(=O)OCc3cccnc3)cc2)c(N2CCCC2)c1 , respond with its IC50 at 72 h.
Result string: > 100 µM

Query string: Given O=C(NCc1ccc(NC(=O)c2cc(C(F)(F)F)ccc2N2CCCC2)cc1)OCc1cccnc1 , respond with its IC50 at 72 h.
Result string: > 100 µM

Query string: Given Nc1ccccc1NC(=O)c1ccc(CNC(=O)OCc2cccnc2)cc1 , respond with its IC50 at 72 h.
Result string: 60.2 µM

Query string: Given O=c1[nH]cc(F)c(=O)[nH]1 , respond with its IC50 at 72 h.
Result string: 38.5 µM

Query string: Given Cc1ccc(N2CCCC2)c(C(=O)Nc2ccc(CNC(=O)OCc3cccnc3)cc2)c1 , respond with its IC50 at 72 h.
Result string: > 100 µM

---

- ASSAY_PROCEDURE: Cmax in Sprague-Dawley rat at 100 mg/kg, po measured up to 24 hrs by LC-MS/MS analysis
- Format: ADME, organism-based
- Parameters: dose 100 mg/kg, time < 24 hrs, route po
- RUN_CONDITIONS: in vivo
METRIC: Cmax (µg/mL)
Give the value, in units of µg/mL, as a plain number.

RECORD_SMILES	Cmax, µg/mL
O=C(NCc1ccc(NC(=O)c2ccccc2N2CCCC2)cc1)OCc1cccnc1	4.09

Now, please, on to the next compound.
Query string: Given O=C(NCc1ccc(NC(=O)c2cc(F)ccc2N2CCCC2)cc1)OCc1cccnc1 , respond with its Cmax.
Result string: 3.98
